// values below are reported EC50 group, cGMP in GTM-3 cells
Molecular target: T1, natriuretic peptide receptor-B (human)
T1 chain: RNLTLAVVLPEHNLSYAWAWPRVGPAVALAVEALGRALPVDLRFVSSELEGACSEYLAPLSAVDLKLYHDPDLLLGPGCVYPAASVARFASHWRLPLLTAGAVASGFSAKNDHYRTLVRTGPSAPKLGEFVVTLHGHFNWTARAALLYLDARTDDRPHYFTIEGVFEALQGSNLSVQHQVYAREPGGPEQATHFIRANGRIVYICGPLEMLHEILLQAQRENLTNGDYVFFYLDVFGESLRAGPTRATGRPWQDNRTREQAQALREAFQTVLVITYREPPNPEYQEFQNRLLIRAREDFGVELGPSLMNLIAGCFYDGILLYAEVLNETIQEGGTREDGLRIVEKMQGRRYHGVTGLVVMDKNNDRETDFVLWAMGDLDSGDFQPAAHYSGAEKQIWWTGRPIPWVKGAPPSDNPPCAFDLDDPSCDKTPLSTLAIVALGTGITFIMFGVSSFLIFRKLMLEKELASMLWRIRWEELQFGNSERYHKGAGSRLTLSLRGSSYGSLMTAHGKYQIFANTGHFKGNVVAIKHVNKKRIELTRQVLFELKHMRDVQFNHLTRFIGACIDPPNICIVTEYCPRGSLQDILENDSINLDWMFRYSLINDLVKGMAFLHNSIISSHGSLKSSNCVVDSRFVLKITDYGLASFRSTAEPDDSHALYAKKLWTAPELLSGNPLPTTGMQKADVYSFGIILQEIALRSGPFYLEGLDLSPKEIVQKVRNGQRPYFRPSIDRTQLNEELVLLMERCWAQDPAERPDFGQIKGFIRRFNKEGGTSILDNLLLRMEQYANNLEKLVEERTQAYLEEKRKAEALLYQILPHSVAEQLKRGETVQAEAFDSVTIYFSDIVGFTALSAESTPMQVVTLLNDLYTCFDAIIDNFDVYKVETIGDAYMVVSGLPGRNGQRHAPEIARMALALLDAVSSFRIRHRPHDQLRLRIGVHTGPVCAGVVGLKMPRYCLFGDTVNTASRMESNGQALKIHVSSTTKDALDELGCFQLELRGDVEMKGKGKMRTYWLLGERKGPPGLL
Test: cell-based or functional assay
Numbered stars: 1 amine (or outer) side, 2 acyl side, 3 side chain; on linkers, the order of the positions; unused ones are H or OH. Square brackets hold non-standard residues; d marks the D form. Ends that are not written are not given here. * marks the point of attachment. Ebe = (R)-2-amino-3-(methylsulfanyl)propanoic acid, CSC[C@H](N[*:1])C(=O)[*:2]; 4734 = (4-butoxy-phenyl)-acetic acid, CCCCOc1ccc(CC(=O)*)cc1; Sni = (S)-nipecotic acid, O=C([C@H]1CCCN([*:1])C1)[*:2]; Phe(4-Me) = Cc1ccc(C[C@H](N)C(=O)O)cc1; Hyp = O=C(O)[C@@H]1C[C@@H](O)CN1; NMeL = CN[C@@H](CC(C)C)C(=O)O; orn(Me2) = not defined here; Octanoyl = CCCCCCCC(=O)*; Hexanoyl = CCCCCC(=O)*; leu = not defined here; Occ = octanoic acid

Sample records with EC50 group, cGMP in GTM-3 cells:
BINDER	EC50 group, cGMP in GTM-3 cells
[Occ]AF[leu]LPLDRI-NH2 (not fully specified (residue 2); printed as Occ-ala-Phe-leu-Leu-Pro-Leu-Asp-Arg-Ile-NH2; reading uncertain) [JAL-1013]	≤ 5 µM
4734-[Sni]F[dL]L[Hyp][NMeL]DRI-NH2 [JAL-1609]	≤ 5 µM
Octanoyl-[dA][Phe(4-Me)][dL]L[Hyp]LDRI-NH2 [JAL-1051]	≤ 5 µM
Hexanoyl-[Ebe][dP]FGLKIDRIS[Ebe]-NH2 [JAL-0534]	≤ 15 µM

Next binder, EC50 group, cGMP in GTM-3 cells to be filled in.
Quick check: EC50 group, cGMP in GTM-3 cells of Octanoyl-[Sni]F[orn(Me2)]L[Hyp][NMeL]VRI-NH2 (reading uncertain; also: printed as Occ-Sni-Phe-orn(Me2)-Leu-Hyp-Nml-Val-Arg-Ile-NH2) [JAL-1782] ?
≤ 1 µM
